# ASSAY_TARGET: Polyamine deacetylase HDAC10 (Homo sapiens)
# Sequence (Q969S8 whole entry): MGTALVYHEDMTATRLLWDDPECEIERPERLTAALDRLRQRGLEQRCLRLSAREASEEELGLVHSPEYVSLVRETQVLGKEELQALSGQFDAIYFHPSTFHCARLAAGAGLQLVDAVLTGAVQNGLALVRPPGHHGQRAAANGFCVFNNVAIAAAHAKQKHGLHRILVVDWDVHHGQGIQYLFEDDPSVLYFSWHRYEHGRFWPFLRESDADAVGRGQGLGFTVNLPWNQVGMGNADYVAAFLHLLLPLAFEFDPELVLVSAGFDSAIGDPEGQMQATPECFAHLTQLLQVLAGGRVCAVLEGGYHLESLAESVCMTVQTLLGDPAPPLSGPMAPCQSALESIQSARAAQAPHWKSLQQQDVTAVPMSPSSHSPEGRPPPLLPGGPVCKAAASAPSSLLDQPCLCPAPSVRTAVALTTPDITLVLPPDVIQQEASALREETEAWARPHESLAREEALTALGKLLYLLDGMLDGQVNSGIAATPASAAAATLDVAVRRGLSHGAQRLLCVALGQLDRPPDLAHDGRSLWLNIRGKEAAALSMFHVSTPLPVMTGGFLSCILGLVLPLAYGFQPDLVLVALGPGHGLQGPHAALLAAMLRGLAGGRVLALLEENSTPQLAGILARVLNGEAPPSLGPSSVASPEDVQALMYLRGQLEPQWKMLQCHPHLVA
QUANTITY_KIND: log10 IC50 (log10 of the value in nM)
// do not treat as linear: log10 of IC50, unit nM

O=C(CCCCCCC(=O)Nc1ccc(-c2cn(Cc3ccccc3)nn2)cc1)NO; 2.27
O=C(CCCCCCC(=O)Nc1ccc(-c2cn(-c3ccccc3)nn2)cc1)NO; 1.56
O=C(CCCCCCC(=O)Nc1cccc(-c2cnnn2CC(O)c2cccc(Br)c2)c1)NO (stereo unspecified); 1.20
O=C(CCCCCCC(=O)Nc1ccc(-c2cnnn2Cc2ccc(F)cc2)cc1)NO; 1.81
O=C(CCCCCCC(=O)Nc1ccc(-c2cn(Cc3ccc(F)cc3)nn2)cc1)NO; 2.05

[in] Reported log10 IC50, molecule O=C(CCCCCCC(=O)Nc1ccc(-c2cnnn2-c2ccccc2)cc1)NO : ____
[out] 1.75

[in] Reported log10 IC50, molecule O=C(CCCCCCC(=O)Nc1ccc(-c2cnnn2CC(O)c2cccc(Br)c2)cc1)NO (stereo unspecified) : ____
[out] 1.87

[in] Reported log10 IC50, molecule O=C(CCCCCCC(=O)Nc1cccc(-c2cn(CC(O)c3cccc(Br)c3)nn2)c1)NO (stereo unspecified) : ____
[out] 1.11

[in] Reported log10 IC50, molecule O=C(CCCCCCC(=O)Nc1cccc(-c2cnnn2Cc2ccccc2)c1)NO : ____
[out] 1.28

[in] Reported log10 IC50, molecule O=C(CCCCCCC(=O)Nc1cccc(-c2cn(Cc3ccccc3)nn2)c1)NO : ____
[out] 1.27

[in] Reported log10 IC50, molecule O=C(CCCCCCC(=O)Nc1ccc(-c2cn(CC(O)c3cccc(Br)c3)nn2)cc1)NO (stereo unspecified) : ____
[out] 1.94

----------
# ASSAY_TARGET: Histone deacetylase 3 (Homo sapiens)
# Sequence (O15379 whole entry): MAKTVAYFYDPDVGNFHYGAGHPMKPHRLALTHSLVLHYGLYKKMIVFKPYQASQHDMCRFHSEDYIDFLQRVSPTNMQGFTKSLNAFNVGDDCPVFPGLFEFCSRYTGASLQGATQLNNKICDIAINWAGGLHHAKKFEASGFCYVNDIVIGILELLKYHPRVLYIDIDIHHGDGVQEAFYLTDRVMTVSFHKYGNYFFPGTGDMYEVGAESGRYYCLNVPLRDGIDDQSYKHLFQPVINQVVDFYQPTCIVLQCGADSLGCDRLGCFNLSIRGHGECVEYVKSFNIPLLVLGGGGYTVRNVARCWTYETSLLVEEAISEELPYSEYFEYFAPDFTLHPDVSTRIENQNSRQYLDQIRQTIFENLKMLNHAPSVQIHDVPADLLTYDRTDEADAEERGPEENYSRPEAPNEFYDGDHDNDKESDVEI
QUANTITY_KIND: IC50

Below, 5 compounds whose answers are already recorded.
O=C(CCCCCCC(=O)Nc1ccc(-c2cn(CC(O)c3cccc(Br)c3)nn2)cc1)NO (configuration not stated); 25.3 nM
O=C(CCCCCCC(=O)Nc1cccc(-c2cnnn2Cc2ccc(F)cc2)c1)NO; 5.8 nM
O=C(CCCCCCC(=O)Nc1ccc(-c2cn(-c3ccccc3)nn2)cc1)NO; 8 nM
O=C(CCCCCCC(=O)Nc1cccc(-c2cnnn2CC(O)c2cccc(Br)c2)c1)NO (configuration not stated); 4.2 nM
O=C(CCCCCCC(=O)Nc1cccc(-c2cnnn2-c2ccccc2)c1)NO; 7.7 nM

[in] Reported IC50, compound O=C(CCCCCCC(=O)Nc1ccc(-c2cnnn2Cc2ccc(F)cc2)cc1)NO : ____
[out] 16.4 nM

[in] Reported IC50, compound O=C(CCCCCCC(=O)Nc1ccc(-c2cnnn2-c2ccccc2)cc1)NO : ____
[out] 12 nM

[in] Reported IC50, compound O=C(CCCCCCC(=O)Nc1cccc(-c2cn(Cc3ccccc3)nn2)c1)NO : ____
[out] 7.9 nM

[in] Reported IC50, compound O=C(CCCCCCC(=O)Nc1cccc(-c2cnnn2Cc2ccccc2)c1)NO : ____
[out] 4.5 nM

[in] Reported IC50, compound O=C(CCCCCCC(=O)Nc1cccc(-c2cn(Cc3ccc(F)cc3)nn2)c1)NO : ____
[out] 4 nM

[in] Reported IC50, compound O=C(CCCCCCC(=O)Nc1cccc(-c2cn(CC(O)c3cccc(Br)c3)nn2)c1)NO (configuration not stated) : ____
[out] 2.7 nM

[in] Reported IC50, compound O=C(CCCCCCC(=O)Nc1ccc(-c2cnnn2Cc2ccccc2)cc1)NO : ____
[out] 9.7 nM
